- protocolNotes: HUVEC nuclei count loss under TNFa – imaging, Hoechst nuclei count, cytotoxicity control for VCAM1 expression modulator project, primary screen (AID 848);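 further: cells counted after 24 h of TNF alpha exposure following the 1 h pretreatment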
- measurementParameters: HUVEC TNFalpha-stimulated, at 2 µM, active compounds read high
The whole screen tested about 93,000 compounds, of which about 160 (0.17%) were called active. Only a selection was taken, and actives are over-represented in it overall.
attributeMeasured: cell count reduction (%)
# number only, unit % dropped from output

Answered examples (8):
[[record]]
compound = "O=C(N/N=C\\c1ccc(-c2ccc(Cl)c(Cl)c2)o1)C(=O)N1CCCC1"
attributemeasured = "cell count reduction"
reported = -10.6

[[record]]
compound = "Cc1cc(C)c2c(-n3cccc3)c(NC(=O)OCc3ccccc3)sc2n1"
attributemeasured = "cell count reduction"
reported = 0

[[record]]
compound = "Cc1ccc(-c2noc(CSc3nnc(-c4ccncc4)n3-c3ccc(F)cc3)n2)cc1"
attributemeasured = "cell count reduction"
reported = 4.5

[[record]]
compound = "COc1ccc(CCNC(=S)NC(=O)/C=C/c2ccc(C)cc2)cc1OC"
attributemeasured = "cell count reduction"
reported = -29.7

[[record]]
compound = "Cc1cc(C)nc(SC(C)C(=O)N/N=C/c2cccs2)n1 (configuration not stated)"
attributemeasured = "cell count reduction"
reported = -19.7

[[record]]
compound = "Clc1ccc(-c2cc(COc3ccccc3)no2)cc1Cl"
attributemeasured = "cell count reduction"
reported = 2

[[record]]
compound = "N#Cc1ccccc1CN1C(=O)S/C(=C/c2cccn2-c2cccc(C(=O)O)c2)C1=O"
attributemeasured = "cell count reduction"
reported = 7.4

[[record]]
compound = "CCC(C)n1c(-c2cc(OC)c(OC)c(OC)c2)nc2nc3ccccc3nc21 (configuration not stated)"
attributemeasured = "cell count reduction"
reported = 5.6


In: For the compound shown here, `O=C(Nc1cc(C(F)(F)F)ccc1Cl)c1cc2nc3c(c(C(F)(F)F)n2n1)CCCC3` , give the reported cell count reduction.
Out: -32.1

In: Consider the compound COC(=O)C(C)Oc1ccc2c(-c3cccc([N+](=O)[O-])c3)cc(=O)oc2c1 (configuration not stated) and give its measured cell count reduction.
Out: -1

In: # get_value(readout='cell count reduction', item= `O=C(COc1ccc(Cl)cc1)NCCC1=CCCCC1` )
Out: -5.2

In: Entry `O=C(Nc1ccccc1)c1ccc2nsnc2c1` : reported cell count reduction = ?
Out: 5.4

In: I'd like to know its cell count reduction. The compound in question is `COCCn1c(SCc2nc3cc(OC)c(OC)cc3c(=O)[nH]2)nnc1-c1ccncc1`
Out: -3.6

In: Data request, read-out cell count reduction, for `Cc1ccc(S(=O)(=O)N(CC(=O)N2CCc3ccccc3C2)c2cccc(Cl)c2)cc1`
Out: 0

---

Property: cell count reduction; scope: individual molecules
- protocolNotes: HUVEC nuclei count loss under TNFa – imaging, Hoechst nuclei count, cytotoxicity control for VCAM1 expression modulator project, primary screen (AID 848);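 further: cells counted after 24 h of TNF alpha exposure following the 1 h pretreatment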
- measurementParameters: HUVEC TNFalpha-stimulated, at 2 µM, active compounds read high
The whole screen tested about 93,000 compounds, of which about 160 (0.17%) were called active. For the sample, actives were picked, then their nearest neighbours and some compounds at random.
Quick note: give the figure in %, leave out the unit.

Solved entries:
[[record]]
molecule = "O=C(NNS(=O)(=O)c1ccc(Cl)cc1)C1CCN(Cc2ccccc2)CC1"
reported = -18.3

[[record]]
molecule = "Cc1[nH]n(-c2ccccc2)c(=O)c1CCOC(=O)c1ccc(C(F)(F)F)cc1"
reported = -15.1

[[record]]
molecule = "CCn1c2ccccc2c2cc(NC(=S)N3CCOCC3)ccc21"
reported = -4

[[record]]
molecule = "C(=N/N1CCN(c2ccccc2)CC1)/c1cccs1"
reported = -6.5


In: Sample `COCCCNCC(=O)Nc1sc(C)c(C)c1C(=O)OC` — what was its cell count reduction?
Out: -27.9

In: # lookup: cell count reduction of `Cn1ncc(Br)c1C(=O)NCc1cccs1`
Out: 4.8

In: Fill blank: measured cell count reduction of the molecule `CNC(=S)NNC(=O)c1sccc1OCc1ccccc1` is ____.
Out: -14.5

In: Looking for the measured cell count reduction of `CCC(=O)NNc1cc(=O)c2c(=O)n(C)c(=O)n(C)c2[nH]1` , can you help?
Out: 13

In: # lookup: cell count reduction of `O=C(CCNS(=O)(=O)c1ccccc1C(F)(F)F)NCc1ccc2c(c1)OCO2`
Out: -8.3

In: cell count reduction lookup needed for CC(Oc1ccc(-c2ccccc2)c(F)c1)c1ccn(S(=O)(=O)c2cccc3ccccc23)n1 (stereo unspecified) , thanks.
Out: -7.1

In: Recorded cell count reduction of `O=C(NCc1cccs1)c1ccc2c(c1)ncn2C1CCCC1` , please.
Out: 87.9

---

- protocolNotes: HUVEC nuclei count loss under TNFa – imaging, Hoechst nuclei count, cytotoxicity control for VCAM1 expression modulator project, primary screen (AID 848);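 further: cells counted after 24 h of TNF alpha exposure following the 1 h pretreatment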
- measurementParameters: HUVEC TNFalpha-stimulated, at 2 µM, active compounds read high
The campaign covered roughly 93,000 compounds. About 160 (0.17%) were called active. The sample as a whole holds a higher share of actives than the screen did.
attributeMeasured: cell count reduction (%)
Quick reminder: number only, in %, skip the unit.

[[record]]
compound = "O=C(CCCN1C(=O)c2ccccc2C1=O)Oc1ccc(Cl)cc1"
reported = -17.1


Continue with the compound presented below.
In: Entry `O=C1Nc2cc(Cl)c(Cl)cc2N(O)N1c1cc(Cl)cc(Cl)c1` has what cell count reduction?
Out: -19.6

---

- protocolNotes: HUVEC nuclei count loss under TNFa – imaging, Hoechst nuclei count, cytotoxicity control for VCAM1 expression modulator project, primary screen (AID 848);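 further: cells counted after 24 h of TNF alpha exposure following the 1 h pretreatment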
- measurementParameters: HUVEC TNFalpha-stimulated, at 2 µM, active compounds read high
In all, about 93,000 compounds went through this assay and about 160 (0.17%) were called active. The full list was thinned out, with actives kept by preference.
attributeMeasured: cell count reduction (%)
Provide only the numeric value, understood in %.

[[record]]
compound = "Cc1cc([N+](=O)[O-])c(N2CCC[C@@H]2C(=O)O)c([N+](=O)[O-])c1"
reported = -11.9

[[record]]
compound = "CC(C)C(=O)Nc1cccc(NC(=S)NC(=O)C(c2ccccc2)c2ccccc2)c1"
reported = -31.2


In: Can you share its cell count reduction? I mean this compound: CN(C)C(CNC(=O)CCCOc1ccccc1)c1ccco1 (stereo not drawn)
Out: -22.1

In: Need cell count reduction, item CCC(c1nnnn1C(C)(C)C)N(Cc1cc2cccc(C)c2n2nnnc12)C1CCCC1 (stereo not drawn)
Out: -17

In: What does the data say about its cell count reduction? Entry: `CC(=O)N1CCc2cc(S(=O)(=O)Nc3ccccc3N3CCN(C)CC3)ccc21`
Out: -25.4

In: For the compound Cc1nn(Cc2ccc(C(=O)N3N=C(C(F)F)CC3(O)C(F)F)cc2)c(C)c1[N+](=O)[O-] (stereo not drawn) , what cell count reduction is on record?
Out: -3.7

In: Reported cell count reduction for `CCC(=O)Nc1ccc(C(=O)Nc2cc(C)on2)cc1` : what is it?
Out: -26.3

In: Fill in: cell count reduction of `CCCCCCC12CCC(C(=O)O)(CC1)CC2` is ___
Out: 14.2

In: Item under review: `COc1ccccc1-c1n[nH]c2c1[C@H](C)CC[C@H]2C(C)C` . Reported cell count reduction?
Out: -1.8

In: Any idea what cell count reduction was measured for `O=C(CSc1ccc(/C=N/NC(=O)c2cccc(F)c2)o1)Nc1ccccc1` ?
Out: -19.1

In: Given the entry `CCc1ccc(C(=O)CSc2nnc(C)c(=O)[nH]2)cc1` , report its measured cell count reduction.
Out: -4.6

---

The following molecules are listed with their measured cell count reduction values.
- protocolNotes: HUVEC nuclei count loss under TNFa – imaging, Hoechst nuclei count, cytotoxicity control for VCAM1 expression modulator project, primary screen (AID 848);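 further: cells counted after 24 h of TNF alpha exposure following the 1 h pretreatment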
- measurementParameters: HUVEC TNFalpha-stimulated, at 2 µM, active compounds read high
The whole screen tested about 93,000 compounds, of which about 160 (0.17%) were called active. The entries come from a sample that favours actives as a whole.

[[record]]
molecule = "Cc1ccc(S(=O)(=O)N(CC(=O)NCCSC2CCCCC2)c2ccccc2F)cc1"
reported = "-49.8% (inactive)"

[[record]]
molecule = "O=S(=O)(NCCc1ccccc1)c1ccccc1"
reported = "7.6% (inactive)"


In: Fill in: cell count reduction of O=C1CCCC2=C1C(c1ccccc1)n1c(s/c(=C/c3cccc(F)c3)c1=O)=N2 (stereo not given) is ___
Out: -15.2% (inactive)

In: For the molecule shown here, `O=C1CCN(C(=O)Nc2ccccc2)N1` , give the reported cell count reduction.
Out: -11.8% (inactive)

In: Need cell count reduction of `Cc1cc(C)c2cc(CN(Cc3nnnn3Cc3ccc(F)cc3)C3CCCC3)c(=O)[nH]c2c1` , thanks.
Out: -8.7% (inactive)
